Tested on: Pseudomonas aeruginosa
Assay: In vitro antimicrobial activity against Pseudomonas aeruginosa 1592 E
Format: functional
Endpoint: MIC (µg/mL)
Write it as a number; the unit µg/mL goes unstated.

Query: Field request: MIC | item: CO/N=C(/C(=O)N[C@@H]1C(=O)N2C(C(=O)[O-])=C(C[n+]3cccc(-c4cc(C(N)=O)[nH]n4)c3)CS[C@H]12)c1csc(N)n1
Reply: 3.12

Query: How about CO/N=C(/C(=O)N[C@@H]1C(=O)N2C(C(=O)[O-])=C(C[n+]3cccc(-c4cc(N)n(C)n4)c3)CS[C@H]12)c1csc(N)n1 ?
Reply: 3.12

Query: Record: CC(C)(O/N=C(\C(=O)N[C@@H]1C(=O)N2C(C(=O)[O-])=C(C[n+]3ccccc3)CS[C@H]12)c1csc(N)n1)C(=O)O
Reply: 1.56

Query: Okay, and CO/N=C(/C(=O)N[C@@H]1C(=O)N2C(C(=O)[O-])=C(C[n+]3cccc(-c4cc(CO)[nH]n4)c3)CS[C@H]12)c1csc(N)n1 ?
Reply: 3.12
